- method summary: Blood concentrations and pharmacokinetics after 1 mg/kg i.v. in mice
- Type: in vivo, mouse
- experimental setup: mouse, in vivo, iv, 1 mg/kg, mouse blood, mean, read-out: AUC0-tlast, Mean S.D.
assay endpoint: AUC(0-t) (ng·h/mL)

Cc1nn(C)c2nc(NNC(=O)Nc3cc(Cl)nc(Cl)c3)cc(C(C)C)c12
98.4

---

- target desc: S1P5 receptor (Homo sapiens (Human), UniProt Q9H228)
- Sequence (Q9H228 whole entry): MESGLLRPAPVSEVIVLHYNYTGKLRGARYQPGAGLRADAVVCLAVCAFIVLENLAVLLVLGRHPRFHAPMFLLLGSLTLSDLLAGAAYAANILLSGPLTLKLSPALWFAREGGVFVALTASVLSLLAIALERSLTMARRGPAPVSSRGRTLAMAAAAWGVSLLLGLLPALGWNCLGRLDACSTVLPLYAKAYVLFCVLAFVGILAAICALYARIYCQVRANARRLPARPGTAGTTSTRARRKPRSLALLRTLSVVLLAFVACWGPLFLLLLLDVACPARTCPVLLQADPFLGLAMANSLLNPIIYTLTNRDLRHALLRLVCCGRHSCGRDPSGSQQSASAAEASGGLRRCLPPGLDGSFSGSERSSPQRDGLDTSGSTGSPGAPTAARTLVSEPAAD
- method summary: Antagonist assay (FLIPR TETRA, inhibition of reference agonist EC80) on S1P5
- experimental setup: tested as the citrate salt
Assign a class from recorded IC50; defined classes: class 0 (below 10 nM), class 1 (10 nM to below 70 nM), class 2 (70 nM or more)

C=CCn1nc(C)c2c(C(F)(F)F)cc(NNC(=O)Nc3cc(Cl)nc(Cl)c3)nc21
class 2
COCCOc1cc(NC(=O)NN(CCO)c2cc(C(C)C)c3c(C)nn(C)c3n2)cc(Cl)n1
class 2
Cc1nn(C)c2nc(N(CCO)NC(=O)Nc3cc(Cl)no3)cc(C(C)C)c12
class 2
C=CCn1nc(C)c2c(C(C)C)cc(N(CC(=O)O)NC(=O)Nc3cc(Cl)nc(Cl)c3)nc21
class 2
Cc1nn(C)c2nc(N(CCO)NC(=O)Nc3cc(Cl)c(Cl)s3)cc(C(C)C)c12
class 2
Cc1nn(C)c2nc(N(CCO)NC(=O)Nc3cc(Cl)cc(C(F)(F)F)c3)cc(C(C)C)c12
class 2
CCN(C)c1cc(NC(=O)NN(CCO)c2cc(C(C)C)c3c(C)nn(C)c3n2)cc(Cl)n1
class 1
CCNc1cc(NC(=O)NN(CCO)c2cc(C(C)C)c3c(C)nn(C)c3n2)cc(Cl)n1
class 0
C=CCn1nc(C)c2c(C(C)C)cc(ONC(=O)Nc3cc(Cl)nc(Cl)c3)nc21
class 0
C=CCn1nc(C)c2c(C(C)C)cc(NNC(=O)Nc3cc(Cl)nc(Cl)c3)nc21 [Compound 1]
class 0
Cc1nn(C)c2nc(N(CCO)NC(=O)Nc3cnc(Cl)c(Cl)c3)cc(C(C)C)c12
class 2
CCCOc1cc(NC(=O)NN(CCO)c2cc(C(C)C)c3c(C)nn(C)c3n2)cc(Cl)n1
class 1
Cc1nn(C)c2nc(N(CCO)NC(=O)Nc3cc(Cl)nc(Cl)c3)cc(C(C)C)c12
class 1
Cc1nn(C)c2nc(N(CCO)NC(=O)Nc3ccc(Cl)nc3Cl)cc(C(C)C)c12
class 2
CCOc1cc(NC(=O)NN(CCO)c2cc(C(C)C)c3c(C)nn(C)c3n2)cc(Cl)n1
class 1
C=CCn1nc(C)c2c(C(C)C)cc(NNC(=O)Nc3cc(Cl)nc(Cl)c3)nc21 [Compound 27]
class 2
